Origin of values: PubChem BioAssay AID256

- Tested on: CD2F1 mice, L1210 leukemia ip, survival T/C
- Assay notes: NCI In Vivo Anticancer Drug Screen. Data for tumor model L1210 Leukemia (intraperitoneal) in CD2F1 (CDF1) mice
- Setup conditions: endpoint: mean survival time; dose: 75.0 mg/kg/injection; schedule: Q01DX001 (ip); vehicle: other; higher = longer survival
Toxic doses and inconclusive results are not listed.
# Lookup of reported T/C keyed by entry

# Molecule, Target system, T/C
measured = [
    ("C[N+]12CCC34c5ccccc5NC3C3C(CC(=O)[O-])OCC=C(C1)C3CC42 (stereo unspecified)", "CD2F1 mice, L1210 leukemia ip, survival T/C", "96 % of control"),
    ("CCCCCCOc1ccc(N=Cc2ccc(N(C)C)cc2)cc1", "CD2F1 mice, L1210 leukemia ip, survival T/C", "93 % of control"),
    ("CCC(C)OC(=O)CCl (stereo unspecified)", "CD2F1 mice, L1210 leukemia ip, survival T/C", "97 % of control"),
    ("CC(=O)Nc1nc2ncc(/C=C/c3ccccc3)nc2c(=O)[nH]1", "CD2F1 mice, L1210 leukemia ip, survival T/C", "100 % of control"),
    ("CCCCCCCCCCCCCCP(=O)(O)O", "CD2F1 mice, L1210 leukemia ip, survival T/C", "92 % of control"),
    ("CC1(C)N=C(N)N=C(N)N1c1ccc(CNC(=O)Nc2cccc(S(=O)(=O)F)c2)cc1", "CD2F1 mice, L1210 leukemia ip, survival T/C", "104 % of control"),
]

====

- System: CD2F1 mice, L1210 leukemia ip, survival T/C
- Assay notes: NCI In Vivo Anticancer Drug Screen. Data for tumor model L1210 Leukemia (intraperitoneal) in CD2F1 (CDF1) mice
- Setup conditions: endpoint: mean survival time; dose: 100.0 mg/kg/injection; schedule: Q04DX003 (ip); vehicle: water; higher = longer survival
Toxic doses and inconclusive results are not listed.

# Chemical string, T/C
measured = [
    ("CCCC1CC[N-]CC1.CCCC1CC[N-]CC1.[Br][Pt+2]([Br])([Br])[Br]", "90 % of control"),
    ("Cn1c(=O)c2c(ncn2C)n(C)c1=O.[Cl][Pt]([Cl])[Cl]", "118 % of control"),
    ("Nc1cc2c(c[n+](CCO)c3ccccc23)c2ccccc12", "120 % of control"),
    ("CC(O)(P(=O)(O)O)P(=O)(O)O.[NH-]CC[NH-].[NH-]CC[NH-].[Pd+2].[Pd+2]", "102 % of control"),
]

====

- Tested on: CD2F1 mice, L1210 leukemia ip, survival T/C
- Assay notes: NCI In Vivo Anticancer Drug Screen. Data for tumor model L1210 Leukemia (intraperitoneal) in CD2F1 (CDF1) mice
- Setup conditions: endpoint: median survival time; dose: 50.0 mg/kg/injection; schedule: Q01DX009 (ip); vehicle: saline with Tween-80
Inconclusive results and toxic doses are left out. The calls were made as follows: active = survival T/C of 150% or more; inactive = T/C below 125% in these data.
Labels: y = active, n = inactive

# Molecule, Discrete label
rows = [
    ("CN=C(N)N/N=C(\\C)c1ccc2c(c1)Cc1ccccc1-2", "n"),
    ("CCCCNP1(NCCCC)=NP(NCCCC)(NCCCC)=NP(NCCCC)(NCCCC)=NP(NCCCC)(NCCCC)=N1", "n"),
    ("CCN(CC)CCNc1ccc(C)c2sc3ccc(O)cc3c(=O)c12", "y"),
    ("OCC1OC(n2cnc3cc(Cl)c(Cl)cc32)C(O)C1O (centres undefined)", "n"),
]

====

- Test system: CD2F1 mice, L1210 leukemia ip, survival T/C
- Assay notes: NCI In Vivo Anticancer Drug Screen. Data for tumor model L1210 Leukemia (intraperitoneal) in CD2F1 (CDF1) mice
- Setup conditions: endpoint: mean survival time; dose: 6.25 mg/kg/injection; schedule: Q01DX009 (ip); vehicle: saline with Tween-80; higher = longer survival
Inconclusive results and toxic doses are left out.
Reported metric: T/C

# Compound, Reported metric, Value measured
rows = [
    ("COC1(OC)C(Cl)=C(Cl)C(Cl)=C1Cl", "T/C", "96 % of control"),
    ("O=C1C=CN(C2OC(CO)C(O)C2O)C(=O)C1 (stereo unspecified)", "T/C", "120 % of control"),
    ("c1ccc(N=N/C(=N/Nc2ccccc2)c2ccccc2)cc1", "T/C", "104 % of control"),
    ("CC(=O)CC(C)=O.CC(=O)CC(C)=O.CC(=O)CC(C)=O.[Fe]", "T/C", "93 % of control"),
    ("CN(C)CCCN=Cc1cc(Cl)ccc1O.CN(C)CCCN=Cc1cc(Cl)ccc1O.[Ni+2]", "T/C", "93 % of control"),
    ("NC(=S)/N=C\\C(CC(O)C(O)C(O)CO)=N\\NC(N)=S (stereo unspecified)", "T/C", "96 % of control"),
]

====

- System: CD2F1 mice, L1210 leukemia ip, survival T/C
- Assay notes: NCI In Vivo Anticancer Drug Screen. Data for tumor model L1210 Leukemia (intraperitoneal) in CD2F1 (CDF1) mice
- Setup conditions: endpoint: mean survival time; dose: 100.0 mg/kg/injection; schedule: Q01DX009 (ip); vehicle: Klucel (hydroxypropylcellulose) (HPC); higher = longer survival
- Description: The antitumor activity of compounds was measured in mice bearing transplantable tumors. Survival or tumor size were measured and the results are expressed as the measurement made in the treated group (T) divided by the measurement made in the vehicle treated control group (C). The tumor model used in this assay is L1210 Leukemia (intraperitoneal) in CD2F1 (CDF1) mice
Inconclusive results and toxic doses are left out.
# Lookup of reported T/C keyed by entry

# Chemical string, Target system, T/C
rows = [
    ("COc1ccc(NC(=O)Oc2cccnc2)c(Cl)c1", "CD2F1 mice, L1210 leukemia ip, survival T/C", "104 % of control"),
    ("COc1ccc(N=NN(C)C(=O)c2ccccc2)cc1", "CD2F1 mice, L1210 leukemia ip, survival T/C", "117 % of control"),
    ("Clc1ncnc2c1ncn2CCCn1cnc2c(Cl)ncnc21", "CD2F1 mice, L1210 leukemia ip, survival T/C", "103 % of control"),
]

====

- System: CD2F1 mice, L1210 leukemia ip, survival T/C
- Assay notes: NCI In Vivo Anticancer Drug Screen. Data for tumor model L1210 Leukemia (intraperitoneal) in CD2F1 (CDF1) mice
- Setup conditions: endpoint: mean survival time; dose: 25.0 mg/kg/injection; schedule: Q01DX009 (ip); vehicle: saline with Tween-80; higher = longer survival
- Method: The antitumor activity of compounds was measured in mice bearing transplantable tumors. Survival or tumor size were measured and the results are expressed as the measurement made in the treated group (T) divided by the measurement made in the vehicle treated control group (C). The tumor model used in this assay is L1210 Leukemia (intraperitoneal) in CD2F1 (CDF1) mice
Toxic doses and inconclusive results are not listed.
# Lookup of reported T/C keyed by entry

# Chemical string, Target system, T/C
records = [
    ("C[Si](C)(C)Oc1cc(N=NNC2=CC(=O)c3ccccc3C2=O)c(O)c2ccccc12", "CD2F1 mice, L1210 leukemia ip, survival T/C", "98 % of control"),
    ("Cc1c(N)ccc(O)c1C", "CD2F1 mice, L1210 leukemia ip, survival T/C", "97 % of control"),
    ("c1ccc2c(c1)nnn1c3cnccc3nc21", "CD2F1 mice, L1210 leukemia ip, survival T/C", "103 % of control"),
    ("Cc1cc(C)c(C(Cl)(Cl)Cl)c(C)c1Cl", "CD2F1 mice, L1210 leukemia ip, survival T/C", "108 % of control"),
    ("NC(=O)C(C(N)=O)c1ccnc2ccccc12", "CD2F1 mice, L1210 leukemia ip, survival T/C", "93 % of control"),
    ("C=C(C)[C@@H]1CCc2c(O)c(O)c(=O)cc(C)c2C1", "CD2F1 mice, L1210 leukemia ip, survival T/C", "95 % of control"),
    ("O=C(CNC(=O)NCc1ccco1)N/N=C/c1cc(Br)ccc1O", "CD2F1 mice, L1210 leukemia ip, survival T/C", "94 % of control"),
    ("CC(C)c1ccccc(=O)c1O.CC(C)c1ccccc(=O)c1O.[Cu]", "CD2F1 mice, L1210 leukemia ip, survival T/C", "103 % of control"),
    ("O=[N+]([O-])c1ccc(SSC(Cl)(Cl)Cl)cc1", "CD2F1 mice, L1210 leukemia ip, survival T/C", "101 % of control"),
    ("CN=C(N)N/N=C(\\C)c1ccc2c(c1)Cc1ccccc1-2", "CD2F1 mice, L1210 leukemia ip, survival T/C", "105 % of control"),
    ("[NH2-].[NH2-].[NH2-].[NH2-].[Pt+4]", "CD2F1 mice, L1210 leukemia ip, survival T/C", "92 % of control"),
    ("COC1=CC2c3ccccc3C1C1C(OC)=CC2c2ccccc21", "CD2F1 mice, L1210 leukemia ip, survival T/C", "96 % of control"),
]
